Here the recorded MIC is given for each entry.
system: Streptococcus pyogenes; test: Minimum inhibitory concentration was evaluated in vitro against Streptococcus pyogenes C 203; type: functional; conditions: Streptococcus pyogenes; read-out: MIC
Give the value in µg/mL but do not write µg/mL after it.

# count of solved cases: 5
{"compound": "CN[C@H](C)[C@@H]1CCN(c2c(F)cc3c(=O)c(C(=O)O)cn(C4CC4)c3c2C(F)(F)F)C1", "MIC, µg/mL": 0.05}
{"compound": "CCN[C@H](C)[C@H]1CCN(c2nc3c(cc2F)c(=O)c(C(=O)O)cn3-c2ccc(F)cc2F)C1 (racemic)", "MIC, µg/mL": 0.1}
{"compound": "C[C@H](N)[C@H]1CCN(c2nc3c(cc2F)c(=O)c(C(=O)O)cn3C2CC2)C1", "MIC, µg/mL": 0.05}
{"compound": "CCNCC1CCN(c2nc3c(cc2F)c(=O)c(C(=O)O)cn3C2CC2)C1 (centres undefined)", "MIC, µg/mL": 0.2}
{"compound": "CNC(C)C1CCN(c2cc3c(c(N)c2F)c(=O)c(C(=O)O)cn3C2CC2)C1 (racemic)", "MIC, µg/mL": 0.025}

Shift focus to the following entry.
-- ask Request: MIC, test system Streptococcus pyogenes, entry CC(N)C1CCN(c2cc3c(c(N)c2F)c(=O)c(C(=O)O)cn3C2CC2)C1 (mixture of isomers)
-- reply 0.003

Reference source: ChEMBL document CHEMBL1126988
